# Test method notes: Solubility measurement in dilution solvent (PGMEA)
# Type: physicochemical
# Recorded conditions: PGMEA added to 0.5 g compound, stirred 100 rpm, one hour, 25° C.

Compound | Solubility
Cc1ccc(Oc2c(Cl)c(Cl)c3c(c2Cl)/C2=N/c4c5c(Cl)c(Oc6ccc(C)cc6C(C)(C)C)c(Cl)c(Cl)c5c5[n]4[Zn][n]4/c(c6ccccc6/c4=N/C3=N2)=N\C2=NC(=N\5)/c3ccccc32)c(C(C)(C)C)c1 [Synthesis Example 11] | ○
CC(C)COc1c(Cl)c(Cl)c2c(c1Cl)/C1=N/c3c4c(Cl)c(OCC(C)C)c(Cl)c(Cl)c4c4[n]3[Zn][n]3/c(c5ccccc5/c3=N/C2=N1)=N\C1=NC(=N\4)/c2c(Cl)c(Cl)c(Cl)c(Cl)c21 [Synthesis Example 18] | ○
